Data provenance: paper PMC10610424

- assay-comment: Equilibrium solubility, shake flask method, HPLC of KTZ
- Assay type: physicochemical
- test-parameters: thermodynamic from solid; ultrapure water, 37.0 °C, 48 h, mean ± SD, triplicate
measure-name: solubility thermodynamic at 48 h (µg/mL)
Answers are plain numbers, in µg/mL.

Please look up its solubility thermodynamic at 48 h: CC(=O)N1CCN(c2ccc(OCC3COC(Cn4ccnc4)(c4ccc(Cl)cc4Cl)O3)cc2)CC1 (stereo not shown) [KTZ, reference compound] 1.2

###

- assay-comment: Equilibrium solubility, shake flask method, HPLC of KTZ
- Type: physicochemical
- test-parameters: pH 4.5 acetate buffer, 37.0 °C, 48 h, mean ± SD, triplicate
I'd be grateful if you could share measured Equilibrium solubility, concentration of KTZ for these entries.
Answers are plain numbers, in µg/mL.

Answered examples (3):
>  <compound>
CC(=O)N1CCN(c2ccc(OCC3COC(Cn4ccnc4)(c4ccc(Cl)cc4Cl)O3)cc2)CC1.O=C(O)c1ccc(O)c(O)c1 (racemic)

>  <observed-result>
308.06

$$$$
>  <compound>
CC(=O)N1CCN(c2ccc(OCC3COC(Cn4ccnc4)(c4ccc(Cl)cc4Cl)O3)cc2)CC1.O=C(O)c1cc([N+](=O)[O-])cc([N+](=O)[O-])c1 (racemic)

>  <observed-result>
273.66

$$$$
>  <compound>
CC(=O)N1CCN(c2ccc(OCC3COC(Cn4ccnc4)(c4ccc(Cl)cc4Cl)O3)cc2)CC1.O=C(O)c1c(O)cccc1O (racemic)

>  <observed-result>
263.76

$$$$

Now let's try a different one.
Please look up its Equilibrium solubility, concentration of KTZ: CC(=O)N1CCN(c2ccc(OCC3COC(Cn4ccnc4)(c4ccc(Cl)cc4Cl)O3)cc2)CC1.O=C(O)CCCC(=O)O (racemic) 339.87

###

- assay-comment: Equilibrium solubility, shake flask method, HPLC of KTZ
- Type: physicochemical
- test-parameters: distilled water (abstract)
- Protocol: The solutions were stirred at 160 strokes min^−1 with a magnetic bar at 37 °C for 48 h to reach equilibrium. The suspension was filtered through a 0.22 μm nylon filter membrane, diluted appropriately, and analyzed by subsequent high-performance liquid chromatography (HPLC) analysis. […] All the solubility experiments were performed in triplicate and the results are expressed as the mean value ± standard deviation (SD). […]
measure-name: Solubility of ketoconazole in distilled water (µg/mL)
Answers are plain numbers, in µg/mL.

Answered examples (3):
>  <molecule>
CC(=O)N1CCN(c2ccc(OCC3COC(Cn4ccnc4)(c4ccc(Cl)cc4Cl)O3)cc2)CC1.O=C(O)c1c(O)cccc1O (racemic)

>  <observed-result>
139.1

$$$$
>  <molecule>
CC(=O)N1CCN(c2ccc(OCC3COC(Cn4ccnc4)(c4ccc(Cl)cc4Cl)O3)cc2)CC1.O=C(O)c1ccc(O)c(O)c1 (racemic)

>  <observed-result>
386.3

$$$$
>  <molecule>
CC(=O)N1CCN(c2ccc(OCC3COC(Cn4ccnc4)(c4ccc(Cl)cc4Cl)O3)cc2)CC1.O=C(O)c1cc([N+](=O)[O-])cc([N+](=O)[O-])c1 (racemic)

>  <observed-result>
191.7

$$$$

Now let's try a different one.
Please look up its Solubility of ketoconazole in distilled water: CC(=O)N1CCN(c2ccc(OCC3COC(Cn4ccnc4)(c4ccc(Cl)cc4Cl)O3)cc2)CC1.O=C(O)CCCC(=O)O (racemic) 2165.6
